Data provenance: PubChem BioAssay (NCI)

TGI by entry:
# Tested on: K-562 leukemia
# Procedure text: NCI tumour cell line growth inhibition, 48 h

Check out these entries, answers already filled in.
{"Compound": "CSCC[C@H]1C(=O)N=C(N)N1C(=O)OCc1ccccc1", "Reported measurement": "71.9 µM"}
{"Compound": "COC(=O)C(Cc1nc2ccc(Cl)cc2[nH]c1=O)C(=O)C(=O)Nc1ccccc1[N+](=O)[O-] (centres undefined)", "Reported measurement": "> 100 µM"}
{"Compound": "COc1cc2cc(Oc3ccc(NC(=O)c4ccc(Cl)c(C(F)(F)F)c4)cc3)c(C)nc2cc1OC", "Reported measurement": "> 100 µM"}
{"Compound": "CO[C@@H](c1ccccc1)[C@H](O)[C@](O)(c1ccccc1)P(=O)(OC)OC", "Reported measurement": "> 100 µM"}
{"Compound": "CCCCC[C@H]1C/C=C2/C(=O)C(Cl)=C[C@@H]2C/C=C\\CCCC(=O)O[C@@H](CCCCC)C/C=C2/C(=O)C(Cl)=C[C@@H]2C/C=C\\CCCC(=O)O1", "Reported measurement": "2.29 µM"}

[ask] Would you mind telling me what TGI value was observed for COC1OC(COC(=O)NCCCCC(=O)C(F)(F)F)C(O)C(O)C1O (centres undefined) ?
[reply] > 100 µM

[ask] For the compound shown here, `CCOC(=O)c1cnn(-c2ccnc3c(C(F)(F)F)cccc23)c1N` , give the reported TGI.
[reply] > 100 µM

[ask] Please report the recorded TGI for `Cn1c(=O)nc2n(-c3ccc(Cl)cc3Cl)c3ccccc3nc-2c1=O` .
[reply] 22.6 µM

[ask] What measured TGI goes with CC(CCCOC(c1ccccc1)(c1ccccc1)c1ccccc1)OC(=O)Nc1cc([N+](=O)[O-])cc([N+](=O)[O-])c1 (centres undefined) ?
[reply] > 100 µM

----------
# Tested on: HT29 colon
# Procedure text: NCI tumour cell line growth inhibition, 48 h; in the data active = GI50 below about 0.43 µM; inactive = the rest
Log the outcome using a class from active, inactive

Example results:
{"Molecule": "Oc1cc(Cl)ccc1Oc1ccc(Cl)cc1Cl", "Label": "inactive"}
{"Molecule": "CCOC(=O)c1cnn(-c2ccnc3c(C(F)(F)F)cccc23)c1N", "Label": "inactive"}
{"Molecule": "CC(=O)OC1C2(CC3N4C(=O)C5(CO)SSC4(CC31O)C(=O)N5C)OC(C)C(C)(C)C2=O (stereo unspecified)", "Label": "active"}
{"Molecule": "CC(C)OC(=O)c1ccc2[nH]c(O)c(C(=Nc3ccc(N(C)C(=O)CN4CCN(C)CC4)cc3)c3ccccc3)c2c1", "Label": "active"}
{"Molecule": "C=C(C)CCC(C)N1CCC(N2CCC(C(=O)NCCc3ccccc3)CC2)CC1 (stereo unspecified)", "Label": "inactive"}

API: the following record is the query input.
[ask] Status in this test for `Fc1ccc(Nc2nccc(-c3c(-c4ccc(C(F)(F)F)cc4)nn4ncccc34)n2)cc1F` ?
[reply] inactive

----------
# System: SR leukemia
# Procedure text: NCI tumour cell line growth inhibition, 48 h
Quick reference: TGI of the listed items.

// worked examples, TGI included
{"Molecule": "C[C@H](CSC(=O)c1ccccc1)C(=O)N1c2ccccc2C[C@H]1C(=O)O", "Reported measurement": "> 100 µM"}
{"Molecule": "Cc1cc(N2CCCC2)nc(N(CCCNc2ccnc3cc(Cl)ccc23)Cc2ccc3c(c2)OCO3)n1", "Reported measurement": "0.431 µM"}
{"Molecule": "COc1cc(Oc2c(O)c(C)c(OC)c(C(C)=O)c2O)c(C(C)=O)c(O)c1C", "Reported measurement": "> 100 µM"}
{"Molecule": "NC1CNC(=O)c2cscc21 (stereo unspecified)", "Reported measurement": "> 100 µM"}
{"Molecule": "O=C(Nc1ccc2c(c1)oc(=O)c1ccccc12)C(Cl)Cl", "Reported measurement": "> 100 µM"}

[ask] Any idea what TGI was measured for `Nc1nnc(-c2ccco2)c(-c2ccco2)n1` ?
[reply] > 100 µM
